- Tested on: B6C3F1 mice, B16 melanoma ip, median survival T/C
- assay_text: NCI In Vivo Anticancer Drug Screen. Data for tumor model B16 Melanoma (intraperitoneal) in B6C3F1 mice
- applied_conditions: endpoint: median survival time; dose: 50.0 mg/kg/injection; schedule: Q01DX009 (ip); vehicle: saline with Tween-80; higher = longer survival
Inconclusive results and toxic doses are left out.
The reader will find reported T/C values listed item by item below.

molecule	T/C
CC1(C)CC1(Br)Br	97 % of control
O=C(CO)c1ccc([N+](=O)[O-])cc1	100 % of control
CCOc1ccc(NC(=O)C(C(C)N2CCCCC2)N2CCCCC2)cc1 (stereo not drawn)	93 % of control
O=C(C/C(=N\C(=S)Nc1cc(C(F)(F)F)ccc1Cl)NO)N1CCCC1	116 % of control
c1ccc2[nH]ncc2c1	107 % of control

Now examine the next entry.
Lookup: Give a short answer stating reported T/C for COc1ccc(C(=O)CC2CCCC(CC(=O)c3ccc(OC)cc3)N2C)cc1 (stereo not drawn) .
Found: 103 % of control

====

- System: B6C3F1 mice, B16 melanoma ip, median survival T/C
- assay_text: NCI In Vivo Anticancer Drug Screen. Data for tumor model B16 Melanoma (intraperitoneal) in B6C3F1 mice
- applied_conditions: endpoint: median survival time; dose: 25.0 mg/kg/injection; schedule: Q01DX009 (ip); vehicle: Klucel (hydroxypropylcellulose) (HPC)
Toxic doses and inconclusive results are not listed. The calls were made as follows: active = survival T/C of 150% or more; inactive = T/C below 125% in these data. Where a SMILES comes first, the peptide text is derived from it. The star is where a group is joined. Cbz = O=C(OCc1ccccc1)*
API: response.call in active, inactive

Before answering, review these 8 worked examples.
compound	assayed_system	discrete_label
CN=C(NC#N)NCCSCc1nc[nH]c1C	B6C3F1 mice, B16 melanoma ip, median survival T/C	inactive
ClCCCCCCCCCCc1ccccc1	B6C3F1 mice, B16 melanoma ip, median survival T/C	inactive
C=CCOc1cc2c(cc1C(C)c1ccc(OC)cc1)OCO2 (configuration not stated)	B6C3F1 mice, B16 melanoma ip, median survival T/C	inactive
C[Si](C)(C)O/C=C1/CCOC1=O	B6C3F1 mice, B16 melanoma ip, median survival T/C	inactive
CC(C)(C)OC(=O)NCCCCC(NC(=O)OCc1ccccc1)C(=O)O (configuration not stated)	B6C3F1 mice, B16 melanoma ip, median survival T/C	inactive
N=C(N)c1ccc(N=Nc2c(O)ccc3cc(O)ccc23)cc1	B6C3F1 mice, B16 melanoma ip, median survival T/C	inactive
NC(=O)Oc1cc(OC(N)=O)cc(N(CCCl)CCCl)c1	B6C3F1 mice, B16 melanoma ip, median survival T/C	active
CCNC(=O)[B-][N+](C)(C)C	B6C3F1 mice, B16 melanoma ip, median survival T/C	inactive

Lookup: Returns: the outcome recorded for `Cc1[nH]ccc2c(C)c3nc4ccccc4c3cc12` in this assay.
Found: active

Lookup: Returns: the outcome recorded for Oc1c(Cl)cc(Cl)cc1C1N2CCCCC2C2c3cccn3-c3ccccc3N21 (configuration not stated) in this assay.
Found: inactive

Lookup: Returns: the outcome recorded for O=C(NC(CSSCC(NC(=O)OCc1ccccc1)C(=O)O)C(=O)O)OCc1ccccc1 (configuration not stated) in this assay.
Found: inactive

Lookup: Returns: the outcome recorded for `Cc1cc(Nc2ccc3c(c2)OCO3)c2cc3c(cc2n1)OCO3` in this assay.
Found: inactive

Lookup: Returns: the outcome recorded for `CCC(=O)[O][Bi]([c]1ccccc1)[c]1ccccc1` in this assay.
Found: inactive

Lookup: Returns: the outcome recorded for `O=C1C=C(Nc2ccccc2)c2ccccc2C1=O` in this assay.
Found: inactive

Lookup: Returns: the outcome recorded for `N=c1nc2n(cc1F)[C@@H]1O[C@H](CO)[C@@H](O)[C@@H]1O2` in this assay.
Found: inactive

Lookup: Returns: the outcome recorded for `CN(C)C(=O)SC1=C(c2c(Cl)cccc2Cl)C(=O)c2ccccc21` in this assay.
Found: inactive

Lookup: Returns: the outcome recorded for CC1=NNC(=O)C1CCO (configuration not stated) in this assay.
Found: inactive

Lookup: Returns: the outcome recorded for `COc1cc(C(=O)c2cc3c(cc2C)OCO3)cc(OC)c1OC` in this assay.
Found: inactive

Lookup: Returns: the outcome recorded for `O=c1nc(-c2ccco2)sc(=O)[nH]1` in this assay.
Found: inactive

Lookup: Returns: the outcome recorded for O=C1CCCCCC2=NC12 (configuration not stated) in this assay.
Found: inactive

Lookup: Returns: the outcome recorded for CCCC(NC(=O)OCc1ccccc1)C(=O)NC(C)C(=O)O (configuration not stated) in this assay.
Found: inactive

Lookup: Returns: the outcome recorded for CC(NC(=O)OCc1ccccc1)C(=O)NC(CC(N)=O)C(=O)O (stereo not drawn) (Cbz-Ala-Asn-OH; configuration not given here) in this assay.
Found: inactive

====

- System: B6C3F1 mice, B16 melanoma ip, median survival T/C
- assay_text: NCI In Vivo Anticancer Drug Screen. Data for tumor model B16 Melanoma (intraperitoneal) in B6C3F1 mice
- applied_conditions: endpoint: median survival time; dose: 50.0 mg/kg/injection; schedule: Q01DX009 (ip); vehicle: saline with Tween-80; higher = longer survival
Inconclusive results and toxic doses are left out.
assay_metric: T/C

Known results for molecules:
molecule	T/C
CCCCC/C(C=C(C#N)C#N)=C/c1ccccc1	106 % of control
C(C#CCN1CCOCC1)#CCN1CCOCC1	106 % of control
N#CC(=C1C=CC(=NO)C=C1)c1ccc(Cl)cc1	99 % of control
CCOC(=O)c1c(C)c(C(=O)OCC)n(CC)c1C=O	86 % of control
O=C(Nc1nncs1)c1cccs1	101 % of control

Lookup: Give a short answer stating reported T/C for Nc1nc(=S)c2ncn(C3OC(COC(=O)c4ccccc4)C(OC(=O)c4ccccc4)C3OC(=O)c3ccccc3)c2[nH]1 (stereo not drawn) .
Found: 97 % of control

Lookup: Give a short answer stating reported T/C for `CCN1CSC(=S)N(CC)C1` .
Found: 94 % of control

Lookup: Give a short answer stating reported T/C for O=C(O)C1Cc2nc[nH]c2CN1CO (stereo not drawn) .
Found: 105 % of control

Lookup: Give a short answer stating reported T/C for `O=C(Oc1cc(Cl)ccc1Cl)c1ccccc1` .
Found: 96 % of control

Lookup: Give a short answer stating reported T/C for `Cc1ccc(S(=O)(=O)NC(=O)OC23COCN2COC3)cc1` .
Found: 118 % of control

Lookup: Give a short answer stating reported T/C for CC(=O)NC(Cc1ccc(F)cc1)C(=O)O (stereo not drawn) .
Found: 121 % of control

Lookup: Give a short answer stating reported T/C for `CCCCNP1(NCCCC)=NP(NCCCC)(NCCCC)=NP(NCCCC)(NCCCC)=NP(NCCCC)(NCCCC)=N1` .
Found: 115 % of control

Lookup: Give a short answer stating reported T/C for `O=C1N=C(Oc2ccccc2)SC1=O` .
Found: 103 % of control

Lookup: Give a short answer stating reported T/C for `Nc1nc(Cc2ccccc2)c(CCCNc2ccccc2)c(=O)[nH]1` .
Found: 86 % of control

Lookup: Give a short answer stating reported T/C for CSc1ccc2c(c1)C(N1CCN(C)CC1)Cc1ccccc1S2 (stereo not drawn) .
Found: 88 % of control

Lookup: Give a short answer stating reported T/C for `Nc1ccc(S(=O)(=O)N/N=C/c2ccccc2[N+](=O)[O-])cc1` .
Found: 104 % of control

Lookup: Give a short answer stating reported T/C for NC(=O)NC(CC(=O)O)C(=O)O (stereo not drawn) .
Found: 113 % of control

Lookup: Give a short answer stating reported T/C for `Nc1ccc(Cl)c2ccccc12` .
Found: 103 % of control

====

- Tested on: B6C3F1 mice, B16 melanoma ip, median survival T/C
- assay_text: NCI In Vivo Anticancer Drug Screen. Data for tumor model B16 Melanoma (intraperitoneal) in B6C3F1 mice
- applied_conditions: endpoint: median survival time; dose: 400.0 mg/kg/injection; schedule: Q01DX009 (ip); vehicle: Klucel (hydroxypropylcellulose) (HPC)
Toxic doses and inconclusive results are not listed. Rule for the calls: active = survival T/C of 150% or more; inactive = T/C below 125% in these data. Where a SMILES comes first, the peptide text is derived from it. [ ]: non-standard residue; d: D form. The star is where a group is joined. Cbz = O=C(OCc1ccccc1)*; Nva = CCC[CH](N)C(=O)O
API: response.call in Yes (active), No (inactive)

compound	assayed_system	discrete_label
CC(NC(=O)OCc1ccccc1)C(=O)NC(CC(N)=O)C(=O)O (stereo not drawn) (Cbz-Ala-Asn-OH; configuration not given here)	B6C3F1 mice, B16 melanoma ip, median survival T/C	No
CCCC(NC(=O)OCc1ccccc1)C(=O)NC(Cc1ccccc1)C(=O)O (stereo not drawn) (Cbz-[Nva]-Phe-OH; configuration not given here)	B6C3F1 mice, B16 melanoma ip, median survival T/C	No
NC(N)=NS(=O)(=O)c1ccc(NCc2c3ccccc3nc3ccccc23)cc1	B6C3F1 mice, B16 melanoma ip, median survival T/C	Yes
CCC(C)C(NC(=O)OCc1ccccc1)C(=O)NC(C(=O)O)C(C)C (stereo not drawn) (Cbz-Ile-Val-OH; configuration not given here)	B6C3F1 mice, B16 melanoma ip, median survival T/C	No

Lookup: Returns: the outcome recorded for CC1=NNC(=O)C1CCO (stereo not drawn) in this assay.
Found: No

Lookup: Returns: the outcome recorded for `O=C1CC2(C(=O)N1CN1CCOCC1)c1ccccc1-c1ccccc12` in this assay.
Found: No

Lookup: Returns: the outcome recorded for `O=C1CNC(=O)N1CN1CCOCC1` in this assay.
Found: No

Lookup: Returns: the outcome recorded for `CS(=O)(=O)OCCn1c(=O)n(CCOS(C)(=O)=O)c(=O)n(CCOS(C)(=O)=O)c1=O` in this assay.
Found: No

Lookup: Returns: the outcome recorded for CCCC(NC(=O)OCc1ccccc1)C(=O)NC(Cc1ccccc1)C(N)=O (stereo not drawn) (Cbz-[Nva]-Phe-NH2; configuration not given here) in this assay.
Found: No

Lookup: Returns: the outcome recorded for `Cc1ccc(S(=O)(=O)OCOS(=O)(=O)c2ccc(C)cc2)cc1` in this assay.
Found: Yes

Lookup: Returns: the outcome recorded for COc1cc(C)c(C2NC(=O)c3ccccc3N2)cc1C (stereo not drawn) in this assay.
Found: No

Lookup: Returns: the outcome recorded for CC(NC(=O)C(CO)NC(=O)CN)C(=O)O (stereo not drawn) in this assay.
Found: No

Lookup: Returns: the outcome recorded for COc1ccc2ccccc2c1C1NC(=O)c2ccccc2N1 (stereo not drawn) in this assay.
Found: No

Lookup: Returns: the outcome recorded for CSCCC(NC(=O)CNC(=O)CNC(=O)OCc1ccccc1)C(=O)O (stereo not drawn) (HELM PEPTIDE1{[O=C(OCc1ccccc1)[*:2]].G.G.[CSCCC(N[*:1])C(=O)O]}$$$$V2.0) in this assay.
Found: No

Lookup: Returns: the outcome recorded for CC(C)(OC(=O)NC(CC(N)=O)C(=O)O)c1ccc(-c2ccccc2)cc1 (stereo not drawn) in this assay.
Found: No

Lookup: Returns: the outcome recorded for O=C(NC(Cc1ccc(I)cc1)C(=O)O)c1cccc(Br)c1 (stereo not drawn) in this assay.
Found: No

Lookup: Returns: the outcome recorded for `O=C(O)CNC(=O)OCC1c2ccccc2-c2ccccc21` in this assay.
Found: No

Lookup: Returns: the outcome recorded for CC(C)C(NC(=O)CCNC(=O)OCc1ccccc1)C(=O)O (stereo not drawn) in this assay.
Found: No
